- assay-target: equine BChE (eqBChE) (Equus caballus, UniProt P81908)
- Construct: purchased Sigma-Aldrich (Milan, Italy)
- Sequence (P81908 whole entry): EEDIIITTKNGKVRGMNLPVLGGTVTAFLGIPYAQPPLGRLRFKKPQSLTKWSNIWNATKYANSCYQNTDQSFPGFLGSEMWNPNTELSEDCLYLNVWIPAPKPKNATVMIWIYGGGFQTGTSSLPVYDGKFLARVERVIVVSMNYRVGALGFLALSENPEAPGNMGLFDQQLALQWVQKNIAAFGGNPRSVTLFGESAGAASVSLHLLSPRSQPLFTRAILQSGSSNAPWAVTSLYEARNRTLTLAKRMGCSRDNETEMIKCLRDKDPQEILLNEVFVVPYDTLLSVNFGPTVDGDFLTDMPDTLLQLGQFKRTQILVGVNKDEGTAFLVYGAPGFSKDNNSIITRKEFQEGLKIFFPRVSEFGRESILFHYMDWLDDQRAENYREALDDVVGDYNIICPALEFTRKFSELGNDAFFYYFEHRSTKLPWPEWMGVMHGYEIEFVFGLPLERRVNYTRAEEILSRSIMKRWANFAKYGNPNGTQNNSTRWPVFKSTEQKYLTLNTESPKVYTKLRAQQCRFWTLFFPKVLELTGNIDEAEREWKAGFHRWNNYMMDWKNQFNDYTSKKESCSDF
- assay-name: Percent inhibition of eqBChE, Ellman's spectrophotometric method
- Type: biochemical
- stated-conditions: [I] 9 μM; 0.0833 U/mL enzyme, 100 μM acetylthiocholine; read-out: % inhibition vs eqBChE ± SD
Label satisfied when inhibition at 9 µM is at or above 40%; anything below gets not satisfied.

Oc1cccc(CNCCCCCCNc2ccccn2)c1 [Compound 31] = satisfied
Clc1cc(CNCCCCCNc2ncccn2)cc(Cl)n1 [Compound 12] = not satisfied
COc1ccccc1CNCCCCCCNc1ccccn1 [Compound 28] = satisfied
COc1cc(CNCCCCCCNc2ncccn2)ccc1O [Compound 18] = satisfied
c1ccc(CNCCCCCNc2ccccn2)cc1 [Compound 23] = satisfied
Oc1cccc(CNCCCCCCNc2ncccn2)c1O [Compound 20] = not satisfied
Clc1ccc(CNCCCCCCNc2ncccn2)cc1 [Compound 15] = not satisfied
c1cnc(NCCCCCCNCc2c[nH]c3ccccc23)nc1 [Compound 22] = satisfied
Clc1cc(CNCCCCCCNc2ccccn2)cc(Cl)n1 [Compound 33] = satisfied
COc1cc(CNCCCCCCNc2ncccn2)cc(OC)c1OC [Compound 17] = not satisfied

Record c1ccc(CNCCCCCNc2ncccn2)cc1 [Compound 9] ; criterion: inhibition at 9 µM no lower than 40%. Met? not satisfied

Evaluate c1ccc(CNCCCCCCNc2ncccn2)cc1 [Compound 13] : inhibition at 9 µM at minimum 40%? not satisfied
